Listed here are compounds together with their documented pIC50.
# targetOrTestSystem: pERK1/2 (Thr202/Tyr204), PANC-1 (KRAS G121D) (Homo sapiens, UniProt P01116, G12D)
# Construct: pERK1/2 HTRF read-out
# Sequence (P01116 1-188 isoform P01116-2 G12D): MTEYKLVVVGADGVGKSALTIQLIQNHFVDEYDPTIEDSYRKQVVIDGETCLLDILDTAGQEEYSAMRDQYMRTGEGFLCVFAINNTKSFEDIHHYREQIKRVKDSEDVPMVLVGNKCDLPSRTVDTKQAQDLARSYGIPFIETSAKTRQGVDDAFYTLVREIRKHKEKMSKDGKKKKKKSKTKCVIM
# assayText: Assay of intracellular pERK1/2 (Thr202/Tyr204) phosphorylation in PANC-1 cells (KRAS G12D)
# Type: cell-based
# experimentalContext: pERK1/2, 2 days, read-out: PANC-1 (KRAS G12D) IC50
# Source text: Example 2: Assay of intracellular pERK1/2 (Thr202/Tyr204)phosphorylation 1. […] Fluorescence ratio=fluorescence value665 nm/fluorescence value615 nm Inhibition rate (%)=100−((fluorescence ratio of compound well−fluorescence ratio of negative control well)/(fluorescence ratio of positive control well−fluorescence ratio of negative control well))×100 […]
Friendly reminder that pIC50 comes from taking -log10 of the concentration in mol/L.

Recorded pIC50, per entry:
compound="[2H]C1([2H])CC[C@@]2(C([2H])([2H])Oc3nc4c5c(nc(-c6cc(N)c(F)c(C)c6C(F)(F)F)c(F)c5n3)OCCN4[C@@H](C)c3cccnc3N)C[C@@H](F)CN12 (single isomer, unassigned) [Compound 125]" observed=7.24
compound="Cc1cc(N)cc(-c2nc3c4c(nc(OCC5(CN(C)C)CC5)nc4c2F)N(C(C)c2cccnc2N)CCO3)c1C(F)(F)F (stereo not drawn) [Compound 69]" observed=7.02
compound="C#Cc1c(F)ccc2cc(O)cc(-c3nc4c5c(nc(OC[C@@]67CCCN6C[C@H](F)C7)nc5c3F)N(C(C)c3cccnc3N)[C@@H](C)CO4)c12 (single isomer, unassigned) [Compound 274]" observed=7.89

In: Give the measured pIC50 of [2H]C1([2H])Oc2nc(-c3cc(N)c(F)c(C)c3C(F)(F)F)c(F)c3nc(OC[C@@]45CCCN4C[C@H](F)C5)nc(c23)N(C(C)c2cccnc2N)C1([2H])[2H] (single isomer, unassigned) [Compound 200] .
Out: 7.20

In: Now the compound CC(c1cccnc1N)N1CCOc2nc(-c3cc(O)cc(F)c3C3CC3)c(F)c3nc(OC[C@@H]4CCN4CC(F)F)nc1c23 (single isomer, unassigned) [Compound 24]
Out: 6.54

In: Entry CC(c1cccnc1N)N1CCOc2nc(-c3cc(N)c(F)c(Cl)c3C(F)(F)F)c(F)c3nc(OC[C@@]45CCCN4CC4(CC4(F)F)C5)nc1c23 (single isomer, unassigned) [Compound 227] please
Out: 8.70

In: Queued: Cc1c(F)c(N)cc(-c2nc3c4c(nc(OC[C@@]56CCCN5C[C@H](F)C6)nc4c2F)N(C(C)c2cccnc2N)CCO3)c1C(F)(F)F (stereo partly drawn) [Compound 120]
Out: 9.00

In: Same again, this time with CC(c1cccnc1N)N1c2nc(OC[C@@]34CCCN3C[C@H](F)C4)nc3c(F)c(-c4ccc(F)c5sc(N)nc45)nc(c23)OC[C@@H]1C (stereo partly drawn) [Compound 320]
Out: 7.55

In: Lookup CC(c1cccnc1N)N1c2nc(OC[C@@]34CCCN3C[C@H](F)C4)nc3c(F)c(-c4c(Cl)ccc5[nH]ncc45)nc(c23)OC[C@@H]1C (stereo partly drawn) [Compound 321]
Out: 7.44

In: Also Cc1c(F)c(N)cc(-c2nc3c4c(nc(OC[C@@]56CCCN5CC(=C(F)F)C6)nc4c2F)N(C(C)c2cccnc2N)CCO3)c1C(F)(F)F (stereo partly drawn) [Compound 243] ?
Out: 9.00

In: Can you handle CC(c1cccnc1N)N1CCOc2nc(-c3cc(N)ccc3C(F)(F)F)c(F)c3nc(OC[C@@H]4CC(F)(F)CN4C)nc1c23 (stereo partly drawn) [Compound 37] next?
Out: 6.07

In: Now the same for CC(c1cccnc1N)N1c2nc(OC[C@@H]3C[C@@H](F)CN3C)nc3c(F)c(-c4cc(N)cc(Cl)c4C(F)(F)F)nc(c23)OC[C@@H]1C (single isomer, unassigned) [Compound 287]
Out: 8.70

In: Cc1c(F)c(N)cc(-c2nc3c4c(nc(OC[C@@]56CCCN5CC5(CC5(F)F)C6)nc4c2F)N(C(C)c2cccnc2N)CCO3)c1C(F)(F)F (single isomer, unassigned) [Compound 228] , same question.
Out: 9.10

In: Record: Cc1cc(N)cc(-c2nc3c4c(nc(OC[C@@]56CCCN5C[C@H](F)C6)nc4c2F)N(C(C)c2cccnc2N)[C@@H](C)CO3)c1C(F)(F)F (stereo partly drawn) [Compound 262]
Out: 7.40

In: What do we get for C#Cc1c(F)ccc2cc(O)cc(-c3nc4c5c(nc(OC[C@@H]6C[C@@H](F)CN6C)nc5c3F)N(C(C)c3cccnc3N)[C@@H](C)CO4)c12 (single isomer, unassigned) [Compound 285] ?
Out: 7.07
